Protocol Summary: Solubility of the compound at pH 7.4
Assay type: physicochemical
Test Conditions: buffer
Entries annotated with measured solubility
Report as a plain number; the unit µg/mL is understood.

Worked cases, solubility given:
Smiles Str: Cc1cc(-c2cnn3c(NCC4CCOCC4)cc(N[C@H]4CCC[C@H]4O)nc23)ccc1C(=O)NC1CC1
Scale Unit: µg/mL
solubility: 23

Smiles Str: Cc1cc(-c2cnn3c(NC[C@H]4C[C@H](O)C4)cc(Oc4cccnc4)nc23)ccc1C(=O)NC1CC1
Scale Unit: µg/mL
solubility: 5.4

Returns the measured solubility for the input compound. Input: Cc1cc(-c2cnn3c(NCC4CCOCC4)cc(N[C@@H]4CCCC[C@H]4O)nc23)ccc1C(=O)NC1CC1 13

Record: Cc1cc(-c2cnn3c(NC[C@H]4C[C@](C)(O)C4)cc(Oc4cccnc4)nc23)ccc1C(=O)NC1CC1 3.3

Record: Cc1cc(-c2cnn3c(NC[C@H]4C[C@@](C)(O)C4)cc(NC4CCCC4)nc23)ccc1C(=O)NC1CC1 3.6

Record: Cc1cc(-c2cnn3c(NC[C@H]4C[C@@](C)(O)C4)cc(Oc4cccnc4)nc23)ccc1C(=O)NC1CC1 3.3

Record: Cc1cc(-c2cnn3c(NCC4CCOCC4)cc(Oc4ccccc4)nc23)ccc1C(=O)NC1CC1 0.5

Data credit: ChEMBL document CHEMBL4425165
